target: HLA-B*08:01; assay: IEDB peptide-MHC binding, purified MHC/competitive/fluorescence; filed as Kd, often an IC50 or EC50 that approximates it; bounds were set here for any values at or beyond the usual limits of such assays; conditions: source organism: Human immunodeficiency virus 1
result_type: Kd

INSERT INTO results (sequence_entry, result_type, val) VALUES
  ('KSLFNTVATLY', 'Kd', '≥ 20 µM');

----------
target: HLA-A*26:01; assay: IEDB peptide-MHC binding, purified MHC/competitive/fluorescence; filed as Kd, often an IC50 or EC50 that approximates it; bounds were set here for any values at or beyond the usual limits of such assays; conditions: source organism: Vibrio parahaemolyticus AQ3810
pKd: −log10 of the molar value.
result_type: pKd

INSERT INTO results (sequence_entry, result_type, val) VALUES
  ('HFIYHKREK', 'pKd', '≤ 4.70');

----------
target: HLA-B*27:05; experiment: IEDB peptide-MHC binding, purified MHC/competitive/fluorescence; filed as Kd, often an IC50 or EC50 that approximates it; bounds were set here for any values at or beyond the usual limits of such assays; settings: source organism: Influenza A virus H3N2
pKd: −log10 of the molar value.
result_type: pKd

INSERT INTO results (sequence_entry, val) VALUES
  ('FQKDAKVLF', 5.48);

----------
biological target: HLA-B*40:01; experiment: IEDB peptide-MHC binding, purified MHC/direct/fluorescence; filed as Kd, often an IC50 or EC50 that approximates it; bounds were set here for any values at or beyond the usual limits of such assays; settings: source organism: Vibrio vulnificus
pKd: −log10 of the molar value.
result_type: pKd

INSERT INTO measurements (sequence_entry, assayed_target, result_type, val) VALUES
  ('IQTHCEVGY', 'HLA-B*40:01', 'pKd', '≤ 4.70');

----------
Entries and their Kd
biological target: HLA-A*26:01; assay: IEDB peptide-MHC binding, purified MHC/competitive/radioactivity; filed as Kd, often an IC50 or EC50 that approximates it; bounds were set here for any values at or beyond the usual limits of such assays; settings: source organism: SARS coronavirus Tor2
result_type: Kd (nM)

INSERT INTO measurements (sequence_entry, measure_unit, comparative_sign, val) VALUES
  ('GTFLCANEY', 'nM', '=', 262),
  ('IMLVYCFLGY', 'nM', '≥', 42700),
  ('VAEMDGIQY', 'nM', '=', 1270),
  ('ASFYYIWKSY', 'nM', '=', 2100),
  ('EYPIIGDEL', 'nM', '≥', 77900),
  ('TTTIKPVSY', 'nM', '=', 360),
  ('ETPHLMGWDY', 'nM', '=', 4.91);

----------
molecular target: HLA-A*02:16; assay: IEDB peptide-MHC binding, purified MHC/direct/fluorescence; filed as Kd, often an IC50 or EC50 that approximates it; bounds were set here for any values at or beyond the usual limits of such assays; settings: source organism: Choclo virus
pKd: −log10 of the molar value.
result_type: pKd

INSERT INTO results (sequence_entry, val) VALUES
  ('LPSSSSYSY', '≤ 4.70');

----------
target: HLA-B*07:02; experiment: IEDB peptide-MHC binding, purified MHC/direct/fluorescence; filed as Kd, often an IC50 or EC50 that approximates it; bounds were set here for any values at or beyond the usual limits of such assays; conditions: source organism: Campylobacter jejuni RM1221
result_type: Kd

INSERT INTO assay_data (sequence_entry, assayed_target, result_type, val) VALUES
  ('ALIVAIWDK', 'HLA-B*07:02', 'Kd', '≥ 20 µM');
